Provide the reported EC50 of each item.
test: RSV-A Assay: The description is Japanese.

// query What value of EC50 has been reported for the following compound? O=C1Nc2ccccc2C(c2ccccc2)=NC1Nc1ncc(-c2ccccc2)s1 (stereo not given)
// result > 0.8 µM

// query Another compound to check: `Cc1nc(-c2nnc(N[C@H]3N=C(c4ccccc4)c4ccccc4NC3=O)o2)cs1`
// result > 0.8 µM

// query Another compound to check: `CCOC(=O)c1nc2ccccn2c1N`
// result > 0.8 µM

// query Another compound to check: `O=C1Nc2ccccc2C(c2ccccc2)=N[C@@H]1Nc1nnc(-c2ccsc2N2CCOCC2)o1`
// result < 0.4 µM

// query Another compound to check: O=C1Nc2ccccc2C(c2ccccc2)=NC1Nc1nnc(-c2cccnc2N2CCOCC2)o1 (stereo not given)
// result < 0.4 µM

// query Another compound to check: O=C1Nc2ccccc2C(c2ccccc2)=NC1Nc1nnc(-c2cn(-c3ccc(F)cn3)nc2N2CCOCC2)o1 (stereo not given)
// result < 0.4 µM

// query Another compound to check: O=C1Nc2ccccc2C(c2ccccc2)=NC1Nc1nnc(-c2cc(C(F)(F)F)cnc2N2CCOCC2)o1 (stereo not given)
// result > 0.8 µM

// query Another compound to check: CN1CCN(c2ccccc2-c2nnc(NC3N=C(c4ccccc4)c4ccccc4NC3=O)o2)CC1 (stereo not given)
// result > 0.8 µM

// query Another compound to check: Cc1ccc(-c2nnc(NC3N=C(c4ccccc4)c4ccccc4NC3=O)o2)s1 (stereo not given)
// result > 0.8 µM

// query Another compound to check: `CCOC(=O)c1nc(C)sc1NCCOC`
// result < 0.4 µM

// query Another compound to check: COCCN(C)c1ccc(-c2nnc(NC3N=C(c4ccccc4)c4ccccc4NC3=O)o2)cc1 (stereo not given)
// result > 0.8 µM

// query Another compound to check: CCOC(=O)c1nnc(NC2N=C(c3ccccc3)c3ccccc3NC2=O)o1 (stereo not given)
// result > 0.8 µM

// query Another compound to check: CO[C@H]1CCN(c2ncccc2-c2nnc(NC3N=C(c4ccccc4)c4ccccc4NC3=O)o2)C1 (stereo not given in full)
// result > 0.8 µM

// query Another compound to check: COc1cc(-c2nnc(NC3N=C(c4ccccc4)c4ccccc4NC3=O)o2)ccn1 (stereo not given)
// result > 0.8 µM

// query Another compound to check: `COCCOC(=O)c1nc2ccccc2n1CCOC`
// result > 0.8 µM

---

assay: RSV-A Assay: The description is Japanese.
Provide the reported EC50 of each item.

// query What value of EC50 has been reported for the following compound? `O=C1Nc2ccccc2C(c2ccccc2)=N[C@@H]1Nc1nnc(-c2cn(C3CCC3)nc2N2CCOCC2)o1`
// result < 400 nM

// query Another compound to check: O=C1Nc2ccccc2C(c2ccccc2)=NC1Nc1nnc([C@@H]2CCCN2C2CCNCC2)o1 (some centres undefined)
// result > 800 nM

// query Another compound to check: `Cc1noc(C)c1-c1cc(C#N)ccc1-c1nnc(N[C@H]2N=C(c3ccccc3)c3ccccc3NC2=O)o1`
// result > 800 nM

---

assay: RSV-A Assay: The description is Japanese.
Provide the reported EC50 of each item.

// query What value of EC50 has been reported for the following compound? CC(C)(C)c1nnc(NC2N=C(c3ccccc3)c3ccccc3NC2=O)o1 (configuration not stated)
// result > 800 nM

// query Another compound to check: Cc1cc(-c2nnc(NC3N=C(c4ccccc4)c4ccccc4NC3=O)o2)on1 (configuration not stated)
// result > 800 nM

// query Another compound to check: COC1C2CNCC21 (configuration not stated)
// result > 800 nM

// query Another compound to check: `O=C1Nc2ccccc2C(c2ccccc2)=N[C@@H]1Nc1nnc(-c2cccnc2N2CCOCC2)o1`
// result < 400 nM

// query Another compound to check: O=C1Nc2ccccc2C(c2ccccc2)=NC1Nc1nnc(-c2ccc(=O)[nH]c2)o1 (configuration not stated)
// result > 800 nM

// query Another compound to check: O=C1Nc2ccccc2C(c2ccccc2)=NC1Nc1nnc(-c2ccc(N3CCOCC3)nc2)o1 (configuration not stated)
// result < 400 nM

// query Another compound to check: `Cc1nc(-c2nnc(N[C@H]3N=C(c4ccccc4)c4ccccc4NC3=O)o2)c(N2CCOCC2)o1`
// result < 400 nM

// query Another compound to check: O=C1Nc2ccccc2C(c2ccccc2)=NC1Nc1nnc(-c2ccnc(F)c2)o1 (configuration not stated)
// result < 400 nM

// query Another compound to check: `O=C1Nc2ccccc2C(c2ccccc2)=N[C@H]1Nc1nnc(-c2ccc(F)cc2)o1`
// result > 800 nM

// query Another compound to check: Cc1cc(-n2cncn2)ccc1-c1nnc(NC2N=C(c3ccccc3)c3ccccc3NC2=O)o1 (configuration not stated)
// result > 800 nM

// query Another compound to check: O=C1Nc2ccccc2C(c2ccccc2)=NC1Nc1nnc(CCc2ccccc2)o1 (configuration not stated)
// result > 800 nM

// query Another compound to check: N#CC1CCN(c2ncccc2-c2nnc(NC3N=C(c4ccccc4)c4ccccc4NC3=O)o2)CC1 (configuration not stated)
// result > 800 nM

// query Another compound to check: `O=C1Nc2ccccc2C(c2ccccc2)=N[C@@H]1Nc1nnc(-c2ncc(C3CC3)cc2N2CC3CCC(C2)O3)o1`
// result < 400 nM

// query Another compound to check: `N#Cc1ccc(-c2nnc(N[C@H]3N=C(c4ccccc4)c4ccccc4NC3=O)o2)c(-c2ccoc2)c1`
// result > 800 nM

// query Another compound to check: `C[C@@H]1COCCN1c1cc(C#N)ccc1-c1nnc(N[C@H]2N=C(c3ccccc3)c3ccccc3NC2=O)o1`
// result < 400 nM

// query Another compound to check: `O=C1Nc2ccccc2C(c2ccccc2)=N[C@@H]1Nc1nnc(-c2ncc(C(F)(F)F)cc2NC[C@H]2CCCO2)o1`
// result < 400 nM

// query Another compound to check: CN1CCC(N2CCC[C@H]2c2nnc(NC3N=C(c4ccccc4)c4ccccc4NC3=O)o2)CC1 (some centres not stated)
// result > 800 nM

// query Another compound to check: `Cc1nc(N2CCOCC2)c(-c2nnc(N[C@H]3N=C(c4ccccc4)c4ccccc4NC3=O)o2)cc1C#N`
// result < 400 nM

// query Another compound to check: `O=C1Nc2ccccc2C(c2ccccc2)=N[C@@H]1Nc1nnc(-c2cn(CC(F)(F)F)nc2N2CCOCC2)o1`
// result > 800 nM

// query Another compound to check: `CCOC(=O)c1ncc(C(F)(F)F)cc1N`
// result > 800 nM

// query Another compound to check: `O=C1Nc2ccccc2C(c2ccccc2)=N[C@@H]1Nc1nnc(-c2ncc(Br)cc2N2CCOCC2)o1`
// result < 400 nM

// query Another compound to check: O=C1Nc2ccccc2C(c2ccccc2)=NC1Nc1cc(N2CCOCC2)cnn1 (configuration not stated)
// result > 800 nM

// query Another compound to check: `C[C@@H]1CN(c2ccc(-c3nnc(N[C@H]4N=C(c5ccccc5)c5ccccc5NC4=O)o3)c(Cl)c2)C[C@H](C)O1`
// result > 800 nM

// query Another compound to check: O=C1Nc2ccccc2C(c2ccccc2)=NC1Nc1nnc(-c2ncc(N3CCOCC3)cc2Cl)o1 (configuration not stated)
// result > 800 nM

// query Another compound to check: Cn1cnc(-c2nnc(NC3N=C(c4ccccc4)c4ccccc4NC3=O)o2)c1 (configuration not stated)
// result > 800 nM

// query Another compound to check: O=C1Nc2ccccc2C(c2ccccc2)=NC1Nc1nnc(-c2ccc(-n3cccn3)nc2)o1 (configuration not stated)
// result > 800 nM

// query Another compound to check: `O=C1Nc2ccccc2C(c2ccccc2)=N[C@H]1Nc1nnc(-c2nc(C(F)(F)F)sc2N2CCO[C@H]3C[C@H]32)o1`
// result > 800 nM

// query Another compound to check: `CCOC(=O)c1nc(-c2cnn(C)c2)sc1N1CCOCC1`
// result < 400 nM

// query Another compound to check: `COCCCc1cc(C(F)(F)F)cnc1C(=O)NN`
// result > 800 nM

// query Another compound to check: `C[C@@H]1CN(c2cc(C(F)(F)F)cnc2-c2nnc(N[C@H]3N=C(c4ccccc4)c4ccccc4NC3=O)o2)CCO1`
// result < 400 nM

// query Another compound to check: `N#Cc1cnc(N2CCOCC2)c(-c2nnc(N[C@H]3N=C(c4ccccc4)c4ccccc4NC3=O)o2)c1`
// result < 400 nM

// query Another compound to check: `CC1(c2nc(-c3nnc(N[C@H]4N=C(c5ccccc5)c5ccccc5NC4=O)o3)c(N3CCOCC3)s2)CCC1`
// result < 400 nM

---

experiment: RSV-A Assay: The description is Japanese.
pEC50: −log10 of the molar value.
property_name: pEC50

// query What value of pEC50 has been reported for the following compound? O=C1Nc2ccccc2C(c2ccccc2)=NC1Nc1nnc(-c2ccccc2N2CCCOCC2)o1 (stereo not given)
// result < 6.10

// query Another compound to check: O=C1Nc2ccccc2C(c2ccccc2)=NC1Nc1nc2cc(F)ccc2o1 (stereo not given)
// result < 6.10

// query Another compound to check: Cc1nc(-c2nnc(NC3N=C(c4ccccc4)c4ccccc4NC3=O)o2)ccc1F (stereo not given)
// result < 6.10

// query Another compound to check: `O=C1Nc2ccccc2C(c2ccccc2)=N[C@@H]1Nc1nnc(-c2nc(C3CCCCC3)sc2N2CCOCC2)o1`
// result > 6.40

// query Another compound to check: CC1(Nc2cc(C(F)(F)F)cnc2-c2nnc(N[C@H]3N=C(c4ccccc4)c4ccccc4NC3=O)o2)CCOC1 (stereo not given in full)
// result < 6.10

Just for reference, ChEMBL document CHEMBL5729210 is where these values come from.
